- System: LK-2
- experiment notes: relative viability (nuclei count vs DMSO), 5 days (fraction); higher = more cells survive
- test conditions: first compound 0.4 µM
parameter measured: relative viability
# answer = number (no unit)

Reference set (3 entries):
compound | result value
C[C@@H]1CN(CC(=O)Nc2ccc3c(c2)Cc2cccc(-c4cc(=O)cc(N5CCOCC5)o4)c2S3)C[C@H](C)O1 + C[C@]1(O)C[C@@H](c2nc(-c3ccc4ccc(-c5ccccc5)nc4c3)c3c(N)nccn32)C1 [Linsitinib] (partner 1 µM) | 0.666
Clc1ccc(Nc2nnc(Cc3ccncc3)c3ccccc23)cc1 [Vatalanib] + CS(=O)(=O)CCNCc1ccc(-c2ccc3ncnc(Nc4ccc(OCc5cccc(F)c5)c(Cl)c4)c3c2)o1 [Lapatinib] (partner 2 µM) | 0.698
COc1cc(N2CCC(C(N)=O)CC2)ccc1Nc1nc(N)c(Cl)c(Nc2ccccc2S(=O)(=O)C(C)C)n1 [HG-5-88-01] + Cc1nc(Nc2ncc(C(=O)Nc3c(C)cccc3Cl)s2)cc(N2CCN(CCO)CC2)n1 [Dasatinib] (partner 0.075 µM) | 0.173

QUERY: Fill in the blank: the reported relative viability of COc1cc(N2CCC(C(N)=O)CC2)ccc1Nc1nc(N)c(Cl)c(Nc2ccccc2S(=O)(=O)C(C)C)n1 [HG-5-88-01] + N=C(N)NC(=N)NCCc1ccccc1 [Phenformin] (partner 250 µM) is ____.
RESULT: 0.176

QUERY: Reported relative viability for C[C@@H]1CN(CC(=O)Nc2ccc3c(c2)Cc2cccc(-c4cc(=O)cc(N5CCOCC5)o4)c2S3)C[C@H](C)O1 + CCNC(=O)c1noc(-c2cc(C(C)C)c(O)cc2O)c1-c1ccc(CN2CCOCC2)cc1 [Luminespib] (partner 0.01 µM) : what is it?
RESULT: 0.24

QUERY: Any idea what its relative viability is? The compound is C[C@@H]1CN(CC(=O)Nc2ccc3c(c2)Cc2cccc(-c4cc(=O)cc(N5CCOCC5)o4)c2S3)C[C@H](C)O1 + O=C(CCCCCCC(=O)Nc1ccccc1)NO [Vorinostat] (partner 1 µM)
RESULT: 0.254
